Tested on: SKM1
method_description: area under dose-response curve (cell viability) (AUC (arbitrary, % viability x log concentration)); higher = less sensitive (more viable)
particulars: 4 days
Counter-ions that a name gives are not always drawn.
observation_type: area under dose-response curve
Give bare numbers.

CC[C@@]1(O)C(=O)OCc2c1cc1n(c2=O)Cc2cc3c(CN(C)C)c(O)ccc3nc2-1 [Topotecan HCl]: 269
C[C@@H]1C[C@H]2[C@@H]3CCC4=CC(=O)C=C[C@]4(C)[C@@]3(F)[C@@H](O)C[C@]2(C)[C@@]1(O)C(=O)CO [dexamethasone]: 615
CNC(=O)c1ccccc1Sc1ccc2c(/C=C/c3ccccn3)n[nH]c2c1 [Axitinib]: 679
Cn1cncc1[C@@](N)(c1ccc(Cl)cc1)c1ccc2c(c1)c(-c1cccc(Cl)c1)cc(=O)n2C [Tipifarnib]: 425
O=C(NC1CCNCC1)c1n[nH]cc1NC(=O)c1c(Cl)cccc1Cl [AT-7519]: 415
CCN(CC)CCCC(C)Nc1c2ccc(Cl)cc2nc2ccc(OC)cc12 (centres undefined) [Acrichine]: 617

List the reported area under dose-response curve of each molecule below.
1. Cc1ccccc1-n1c(Cn2cnc3c(N)ncnc32)nc2cccc(C)c2c1=O
2. CN1CCN(CCOc2cc(OC3CCOCC3)c3c(Nc4c(Cl)ccc5c4OCO5)ncnc3c2)CC1 [AZD0530]
3. CO[C@@]12[C@H](COC(N)=O)C3=C(C(=O)C(C)=C(N)C3=O)N1C[C@@H]1N[C@@H]12 [Mitomycin C]

Result:
1. 637
2. 736
3. 387

Source listed as the supplement of paper PMC5752671.
